readoutType: melting point

Guide cases for melting point, answers given:
>>> testresult("Cc1sc2c(c1C)C(c1ccc(Cl)cc1)=N[C@@H](CC(=O)NCC(=O)NCCCCCOc1cccc3c1C(=O)N(C1CCC(=O)NC1=O)C3=O)c1nnc(C)n1-2 (stereo partly drawn)")
"223.4 to 225.1 °C (dec.)"
>>> testresult("Cc1sc2c(c1C)C(c1ccc(Cl)cc1)=N[C@@H](CC(=O)N1CCN(CC(=O)NCCOCCOCCOc3cccc4c3C(=O)N(C3CCC(=O)NC3=O)C4=O)CC1)c1nnc(C)n1-2 (stereo partly drawn)")
"194.5 to 195.8 °C (dec.)"

Requested field: melting point. Item: Cc1sc2c(c1C)C(c1ccc(Cl)cc1)=N[C@@H](CC(=O)N(C)CC(=O)NCCOCCOCCOc1cccc3c1C(=O)N(C1CCC(=O)NC1=O)C3=O)c1nnc(C)n1-2 (stereo partly drawn)
152.5 to 153.5 °C (dec.)
